measurement_notes: Prodrug stability in simulated gastric fluid (USP)
condition_summary: 37° C.
readout_label: % prodrug remaining following incubation for: 1 h in simulated gastric fluid pH 1.1 (%)

molecule | endpoint_value
O=C(O)CC1N=C(NC(=O)Cc2c(Cl)cccc2Cl)NC1=O (stereo not drawn) | 97
N=C(NC(=O)Cc1c(Cl)cccc1Cl)NC(=O)NC(C(=O)O)c1ccccc1 (stereo not drawn) | 96
NC(=O)CC[C@@H]1N=C(NC(=O)Cc2c(Cl)cccc2Cl)NC1=O [Compound 38, Guanfacine-(S)-Glutamine Cyclic adduct] | 70
N=C(NC(=O)Cc1c(Cl)cccc1Cl)NC(=O)OC[C@H](NC(=O)CCN)C(=O)O | 88
CC(C)[C@@H](NC(=O)c1ccc(N)cc1)C(=O)NC(=N)NC(=O)Cc1c(Cl)cccc1Cl [Compound 55, Guanfacine (R)-Valine-PABA Amide] | 65
CC(C)[C@@H]1N=C(NC(=O)Cc2c(Cl)cccc2Cl)NC1=O [Compound 35, Guanfacine-(S)-Valine Cyclic adduct] | 83
